# tgt: MAP kinase-interacting serine/threonine-protein kinase 2 (Homo sapiens)
# run conditions: at 0.1 µM
# Description: GSK_PKIS: MNK2 mean inhibition at 0.1 uM [Nanosyn]

[
  {
    "molecule": "CS(=O)(=O)CCNCc1ccoc1-c1ccc2ncnc(Nc3ccc(OCc4ccccc4)cc3)c2c1",
    "output unit": "%",
    "inhibition": 0.34
  },
  {
    "molecule": "CS(=O)(=O)Nc1ccc(-c2cc(-c3ccccc3)cc(C(N)=O)c2N)cc1",
    "output unit": "%",
    "inhibition": -0.47
  },
  {
    "molecule": "COc1cc2c(cc1Nc1nc(Nc3cccc(F)c3C(N)=O)c3cc[nH]c3n1)N(C(=O)CN1CCN(C(C)C)CC1)CC2",
    "output unit": "%",
    "inhibition": 1.33
  },
  {
    "molecule": "COc1cccc(Nc2nccc(-c3cnn4ncccc34)n2)c1",
    "output unit": "%",
    "inhibition": 3.27
  },
  {
    "molecule": "CC1=C(C(=O)Nc2ccc3[nH]nc(C)c3c2)C(c2ccc(C(F)(F)F)cc2)CC(=O)N1 (centres undefined)",
    "output unit": "%",
    "inhibition": 1.45
  },
  {
    "molecule": "CN1CCC(n2cnc(-c3ccc(F)cc3)c2-c2ccnc(NCCO)n2)CC1",
    "output unit": "%",
    "inhibition": 2.63
  },
  {
    "molecule": "OCCCNc1nccc(-c2c(-c3ccc(F)cc3)nn3cc(C(F)(F)F)ccc23)n1",
    "output unit": "%",
    "inhibition": 2.75
  },
  {
    "molecule": "O=C(Nc1n[nH]c2nnc(-c3cccnc3)cc12)C1CC1",
    "output unit": "%",
    "inhibition": 0.77
  },
  {
    "molecule": "CS(=O)(=O)CCNCc1ccc(-c2ccc3ncnc(Nc4ccc(OCc5ccccc5)cc4)c3c2)o1",
    "output unit": "%",
    "inhibition": 3.2
  },
  {
    "molecule": "CN(c1ccc(NC(=O)NCCN2CCOCC2)cc1)c1ccnc(Nc2ccc(CS(C)(=O)=O)cc2)n1",
    "output unit": "%",
    "inhibition": 2.32
  },
  {
    "molecule": "Fc1ccc(Nc2nccc(-c3c(-c4ccc(C(F)(F)F)cc4)nn4ncccc34)n2)cc1F",
    "output unit": "%",
    "inhibition": 0.89
  },
  {
    "molecule": "CS(=O)(=O)CCNCc1ccc(-c2ccc3ncnc(Nc4ccc(OCc5cccc(C(F)(F)F)c5)cc4)c3c2)o1",
    "output unit": "%",
    "inhibition": 0.53
  },
  {
    "molecule": "COc1cc(Nc2ncc(-c3ccccc3)o2)cc(OC)c1",
    "output unit": "%",
    "inhibition": 1.3
  },
  {
    "molecule": "COc1cc(N2CCN(C(C)C)CC2)ccc1Nc1nc(Nc2cccc(F)c2C(=O)O)c2cc[nH]c2n1",
    "output unit": "%",
    "inhibition": 1.57
  },
  {
    "molecule": "COc1ccccc1-c1cc(/C=C2\\C(=O)Nc3ncc(Br)cc32)cc(Br)c1O",
    "output unit": "%",
    "inhibition": 7.61
  },
  {
    "molecule": "COc1cc(N2CCN(C(C)C)CC2)ccc1Nc1nc(Nc2cccc3ncccc23)c2cc[nH]c2n1",
    "output unit": "%",
    "inhibition": -0.09
  },
  {
    "molecule": "CS(=O)(=O)Nc1ccc(-c2ccc3c(NC(=O)C4CC4)n[nH]c3c2)cc1",
    "output unit": "%",
    "inhibition": 1.69
  },
  {
    "molecule": "NS(=O)(=O)c1cccc(N/C=C2\\C(=O)Nc3ccccc32)c1",
    "output unit": "%",
    "inhibition": 1.04
  },
  {
    "molecule": "O=C(O[C@H]1CN[C@H](C#Cc2cc3ncnc(Nc4ccc5c(cnn5Cc5ccccc5)c4)c3s2)C1)N1CCOCC1",
    "output unit": "%",
    "inhibition": 0.04
  }
]
